Listed molecules paired with reported pEC50
System: ZIKV replicon in Vero cells
Test: ZIKV Replication Inhibition Assay (replicon, NanoLuc)
Details: Zika virus, Vero, 72 h, read-out: Zika Replicon EC50
pEC50: −log10 of the molar value. Structures can show the parent of a compound that is named as a salt.

MOLECULE	pEC50
Cc1ncnc(C)c1-c1ccc(C[n+]2cc([N-]C(=O)Nc3cccc(C(F)(F)F)c3)on2)nn1 [Example 184]	6.00 to 7.00
Cc1noc(C)c1-c1ccc(C[n+]2cc([N-]C(=O)Nc3cccc(C(F)(F)F)n3)on2)nc1 [Example 161]	4.70 to 6.00
O=C([N-]c1c[n+](Cc2cccc(-c3cncnc3)c2)no1)Nc1cccc(C(F)(F)F)c1 [Example 50]	6.00 to 7.00
Cc1noc(C)c1-c1ccc(C[n+]2cc([N-]C(=O)Nc3cc(F)cc(C(F)(F)F)c3)on2)nc1 [Example 153]	> 7.00
COc1ncc(-c2ccc(C[n+]3cc([N-]C(=O)Nc4cccc(C(F)(F)F)c4)on3)cc2)cn1 [Example 41]	6.00 to 7.00
O=C([N-]c1c[n+](-c2ccccc2)no1)Nc1cccc(C(F)(F)F)c1 [Example 7]	4.70 to 6.00
Cc1noc(C)c1-c1ccc(C[n+]2cc([N-]C(=O)Nc3nccc(C(F)(F)F)n3)on2)nc1 [Example 171]	4.70 to 6.00
Cc1cc(NC(=O)[N-]c2c[n+](C(C)Cc3ccccc3)no2)cc(C(F)(F)F)c1 (stereo not drawn) [Example 33]	< 4.70
COc1ncc(-c2ccc(C[n+]3cc([N-]C(=O)Nc4cccc(C#N)c4)on3)cc2)c(C)n1 [Example 114]	4.70 to 6.00
COc1ncnc(C)c1-c1ccc(C[n+]2cc([N-]C(=O)Nc3cncc(C(F)(F)F)c3)on2)nc1 [Example 136]	6.00 to 7.00
Cc1cc(C[n+]2cc([N-]C(=O)Nc3cccc(C(F)(F)F)c3)on2)ccc1-c1cncnc1 [Example 87]	6.00 to 7.00
Cc1ccnnc1-c1ccc(C[n+]2cc([N-]C(=O)Nc3cccc(C(F)(F)F)c3)on2)nc1 [Example 162]	> 7.00
Cc1noc(C)c1-c1ccc(C[n+]2cc([N-]C(=O)Nc3ccc(Cl)c(C(F)(F)F)c3)on2)nc1 [Example 157]	6.00 to 7.00
COc1ncncc1-c1ccc(C[n+]2cc([N-]C(=O)Nc3cccc(C(F)(F)F)c3)on2)cc1 [Example 62]	6.00 to 7.00
CC(=O)NC[C@H](Cc1ccc(-c2ccccc2)cc1)[n+]1cc([N-]C(=O)Nc2cccc(C(F)(F)F)c2)on1 [Example 70]	< 4.70
O=C([N-]c1c[n+](Cc2ccc(-c3cncnc3)cc2)no1)Nc1cccc(C(F)(F)F)c1 [Example 26]	6.00 to 7.00
O=C([N-]c1c[n+](Cc2ccc(-c3cncnc3)cc2)no1)Nc1cncc(C(F)(F)F)c1 [Example 57]	> 7.00
Cc1noc(C)c1-c1ccc(C[n+]2cc([N-]C(=O)Nc3cccc(C(F)(F)F)c3)on2)cc1 [Example 78]	> 7.00
C=C(Cc1ccccc1)[n+]1cc([N-]C(=O)Nc2cccc(C(F)(F)F)c2)on1 [Example 36]	< 4.70
Cc1ncc(-c2ccc(C[n+]3cc([N-]C(=O)Nc4cccc(C(F)(F)F)c4)on3)cc2)n1C [Example 105]	6.00 to 7.00
NC[C@@H](Cc1ccccc1)[n+]1cc([N-]C(=O)Nc2cccc(C(F)(F)F)c2)on1 [Example 49, formate]	< 4.70
O=C([N-]c1c[n+](Cc2ccccc2)no1)Nc1cccc(C(F)(F)F)c1 [Example 6]	4.70 to 6.00
O=C([N-]c1c[n+](Cc2ccc(-c3ccncc3F)cn2)no1)Nc1cccc(C(F)(F)F)c1 [Example 164]	> 7.00
O=C([N-]c1c[n+](Cc2ccc(-c3cncnc3)nc2)no1)Nc1cccc(C(F)(F)F)c1 [Example 103]	6.00 to 7.00
O=C([N-]c1c[n+](Cc2ccc(-c3c(F)cncc3F)cn2)no1)Nc1cccc(C(F)(F)F)c1 [Example 170]	> 7.00
Cc1ccccc1-c1ccc(C[n+]2cc([N-]C(=O)Nc3cccc(C(F)(F)F)c3)on2)cc1 [Example 21]	6.00 to 7.00
O=C([N-]c1c[n+](C2Cc3ccccc3C2)no1)Nc1cccc(C(F)(F)F)c1 [Example 10]	4.70 to 6.00
